- test-target: T1, BCMA expressed on multiple myeloma cell lines H929 and MM1S (UniProt Q02223 1-184, limits assumed)
- T1 construct: whole, on cells; Endogenous BCMA on tumour cell lines; also called BMCA; cell surface BCMA
- T1 sequence (looked up): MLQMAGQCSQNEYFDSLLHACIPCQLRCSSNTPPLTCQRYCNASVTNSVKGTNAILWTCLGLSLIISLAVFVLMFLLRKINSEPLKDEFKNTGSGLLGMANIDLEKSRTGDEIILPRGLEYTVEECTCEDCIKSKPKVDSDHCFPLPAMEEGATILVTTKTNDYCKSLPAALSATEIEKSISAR
- protocol-details: flow cytometry, MM1S cells, purified VH domain (text: 1 uM); control iso_anti-His-PE Median 3.74 [B), MM1S table]
measurement-kind: Median FL2-H
Give bare numbers.

Here are 2 binders. What values of Median FL2-H were reported for them?
1. Clone MN1 (VH domain) (VHH, Single-domain antibody: a VH domain from a synthetic phage library, not camelid; Expressed in E. coli) VHH: EVQLVESGGGLVQPGGSLRLSCAASGFTFTAYDMGWVRQAPGKGPEWVSLISSDSGDTWYDDSVKGRFTISRDNSKNTLYLQMNSLRAEDTAVYYCARLGAYSTTYDYWGQGTLVTVSS
2. Clone MN7 (VH domain) (VHH, Single-domain antibody: a VH domain from a synthetic phage library, not camelid; Expressed in E. coli) VHH: EVQLVESGGGLVQPGGSLRLSCAASGFTFSSYAMGWVRQAPGKGPEVVSLISGSGGSTWYDDSVKGRFTISRDNSKNTLYLQMNSLRAEDTAVYYCASPEDMYQTWGQGTLVTVSS

A:
14.3
4.49

Here are 2 binders. What values of Median FL2-H were reported for them?
1. Clone MN8 (VH domain) (VHH, Single-domain antibody: a VH domain from a synthetic phage library, not camelid; Expressed in E. coli) VHH: EVQLVESGGGLVQPGGSLRLSCAASGFTFSSYAMGWVRQAPGKGPEVVSLISGSGGSTWYDDSVKGRFTISRDNSKNTLYLQMNSLRAEDTAVYYCASPEDAPSYSRWGQGTLVTVSS
2. Clone MN5 (VH domain) (VHH, Single-domain antibody: a VH domain from a synthetic phage library, not camelid; Expressed in E. coli) VHH: EVQLVESGGGLVQPGGSLRLSCAASGFTFSSYAMGWVRQAPGKGPEVVSLISGSGGSTWYDDSVKGRFTISRDNSKNTLYLQMNSLRAEDTAVYYCASREDNMTTWGQGTLVTVSS

A:
4.43
9.81
